// values below are reported cell number change
- testSummary: qHTS Assay for Lipid Storage Modulators in Drosophila S3 Cells;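 on cell number change: cells counted by Cell Tracker Red CMTPX staining in the red channel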
- testSettings: BODIPY lipid droplet fluorescence, 18-24 h, cells fed with added oleic acid; measured here: cell count max response
- Text: NIH Molecular Libraries Probe Production Centers Network [MLPCN] NIH Chemical Genomics Center [NCGC] […] Triacsin C (Sigma-Aldrich T-4540), an inhibitor of long-chain fatty acyl CoA synthetase that blocks synthesis of triglycerides, was used as a positive control for lipid under-storage. […] Fluorescence was detected by excitation of the fluorophores with a 488-nm laser on an Acumen Explorer (TTP Lab Tech). […] Cells were detected using channel 3 (575-640 nm) with 5-um width and 100-um depth filters. […]
Among all 320,000 compounds or so, about 2,100 (0.66%) were called active. Another 53% or so got no clear call; they are omitted. This excerpt belongs to a sample that is enriched for actives.

molecule: CC(C)[C@H](N)c1cn([C@@H](CC(N)=O)C(=O)N2CCNCC2)nn1
cell number change: 10%
//
molecule: COC(=O)c1c(NC(=O)CN2C(=O)NC3(CCC(C)CC3)C2=O)sc2c1CCC2 (stereo not given)
cell number change: -11.8%
//
molecule: CCOC(=O)c1c(NC(=O)CN2C(=O)NC3(CCCCC3C)C2=O)sc(C)c1C (stereo not given)
cell number change: -4.46%
//
molecule: CCCOc1ccccc1/C=C1\SC(N)=NC1=O
cell number change: 13.8%
//
molecule: CCCOc1ccc(/C=C/c2[nH]c(=O)[nH]c(=O)c2[N+](=O)[O-])cc1OCC
cell number change: -5.22%

----------
- testSummary: qHTS Assay for Lipid Storage Modulators in Drosophila S3 Cells;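 on cell number change: cells counted by Cell Tracker Red CMTPX staining in the red channel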
- testSettings: BODIPY lipid droplet fluorescence, 18-24 h, cells fed with added oleic acid; measured here: cell count max response
Screen size: about 320,000 compounds; about 2,100 (0.66%) were called active. About 53% were inconclusive and are not listed. This excerpt belongs to a sample that is enriched for actives.
// values below are reported cell number change

compound: CCCC(=O)Nc1ccc2oc(=O)ccc2c1
cell number change [%]: -4.63
--
compound: Cc1csc(NC(=O)c2cccc(Cn3nc(C)c(Br)c3C)c2)n1
cell number change [%]: -7.75
--
compound: Cc1ccc(C2=NNC(C(O)C(O)C(O)C(O)CO)S2)cc1 (stereo unspecified)
cell number change [%]: -6.96
--
compound: O=C(c1cccs1)N1CCC(c2nc3c(nnn3Cc3cccc(Cl)c3)c(=O)[nH]2)CC1
cell number change [%]: -4.62
--
compound: O=C(CC1C(=O)NCCN1Cc1ccc(-c2ccccc2)cc1)NCCOc1cccnc1 (stereo unspecified)
cell number change [%]: -0.0435
--
compound: Cc1csc(NC(=O)c2ccc(Cn3nc(C)c(Br)c3C)o2)n1
cell number change [%]: -7.94
--
compound: CCOc1c([N+](=O)[O-])cc2c(C)c(C(=O)N3CCN(C)CC3)oc2c1OCC
cell number change [%]: -1.04
--
compound: COc1ccc(N(C)S(=O)(=O)c2cccc(C(=O)Nc3nnc(C)s3)c2)cc1
cell number change [%]: -20.6
--
compound: O=C(O)c1cc(-c2ccccc2Cl)n(-c2ccccc2)n1
cell number change [%]: 19.7
--
compound: CCCCC(CC)C(=O)Nc1ccc(Nc2ccccc2)cc1 (stereo unspecified)
cell number change [%]: -8.16
--
compound: CC(C(=O)NC1CCCCC1)N1C(=O)C2C3C=CC(C3)C2C1=O (stereo unspecified)
cell number change [%]: -1.76

----------
- testSummary: qHTS Assay for Lipid Storage Modulators in Drosophila S3 Cells
- testSettings: BODIPY lipid droplet fluorescence, 18-24 h, cells fed with added oleic acid; series mostly up to 46.1 µM
Among all 320,000 compounds or so, about 2,100 (0.66%) were called active. Inconclusive results (about 53%) are left out. Calls follow the shape of the dose curve; as a rule, active = well fitted inhibition curve with a large enough effect in the signal ratio, with a control signal flat (not every such curve was filed as active); inconclusive = small, poorly fitted or top-dose-only effect, or effect the other way, or a change in a side signal; inactive = flat fitted curve, though single readings scatter; the % refers to the signal ratio. The sample as a whole holds a higher share of actives than the screen did.
Outcomes: active, inactive

molecule: Cc1ccccc1CSc1nnc(NC(=O)Cc2cccs2)s1
className: inactive
--
molecule: COc1ccccc1NC(=O)Nc1ccc(Br)cn1
className: inactive
--
molecule: O=C1c2ccccc2C(=O)C1c1ccccc1
className: inactive
--
molecule: CC(=O)OCC1=C(C(=O)O)N2C(=O)C(NC(=O)c3ccc(COc4ccc(Cl)cc4)o3)C2SC1 (stereo not given)
className: inactive
--
molecule: Cc1c(NC(=O)C(C)N2C(=O)C3CCCCC3C2=O)c(=O)n(-c2ccccc2)n1C (stereo not given)
className: inactive
--
molecule: CCN1CCN(C(C)C(=O)Nc2c(C)n(C)n(-c3ccccc3)c2=O)CC1 (stereo not given)
className: inactive
--
molecule: COc1ccc(NC(=O)Nc2nnc(-c3ccco3)s2)cc1
className: inactive
--
molecule: Cc1ccc(SC(C)C(=O)Nc2c(C)n(C)n(-c3ccccc3)c2=O)cc1 (stereo not given)
className: inactive
--
molecule: COc1ccc(Br)cc1C(=O)NC(=S)Nc1ccc2[nH]c(=O)[nH]c2c1
className: inactive
--
molecule: COc1cc(-c2nnc(SC(C)C(=O)Nc3c(C)n(C)n(-c4ccccc4)c3=O)o2)cc(OC)c1OC (stereo not given)
className: active

----------
- testSummary: qHTS Assay for Lipid Storage Modulators in Drosophila S3 Cells
- testSettings: BODIPY lipid droplet fluorescence, 18-24 h, cells fed with added oleic acid; series mostly up to 46.1 µM
In all, about 320,000 compounds went through this assay and about 2,100 (0.66%) were called active. About 53% were inconclusive and are not listed. Calls come from the whole dose curve; as a rule, active = well fitted inhibition curve with a large enough effect in the signal ratio, with a control signal flat (not every such curve was filed as active); inconclusive = small, poorly fitted or top-dose-only effect, or effect the other way, or a change in a side signal; inactive = flat fitted curve, though single readings scatter; the % refers to the signal ratio. Only a selection was taken, and actives are over-represented in it overall.
Outcomes: active, inactive

compound: CC(=O)Nc1ccc(S(=O)(=O)N2CCCN(S(=O)(=O)c3ccc(NC(C)=O)cc3)CC2)cc1
className: inactive
//
compound: CN(C)c1cc(Nc2ccc(O)cc2)c([N+](=O)[O-])c2nonc12
className: inactive
//
compound: COc1cc(OC)c(C(=O)Nc2ccc(S(=O)(=O)N3CCCCC3)cc2)cc1OC
className: active
//
compound: COc1ccccc1NS(=O)(=O)c1cccc(C(=O)NNC(=O)C(NC(N)=O)C(C)C)c1 (stereo not given)
className: inactive
//
compound: Cc1cc(C(=O)CCC(=O)Nc2ncccc2O)c(C)s1
className: inactive
//
compound: COc1ccc(NC(=O)c2cc(S(=O)(=O)N3CCCCC3)ccc2OC)cc1
className: inactive
//
compound: CC(=O)c1ccc(NC(=O)Nc2ccc(S(=O)(=O)N3CCCC3)cc2)cc1
className: active
//
compound: CC(=O)Nc1ccc(S(=O)(=O)N2CCCC2)cc1
className: inactive
//
compound: COc1ccc(C(=O)Nc2ccc(S(=O)(=O)N3CCCC3)cc2)c(OC)c1
className: inactive
//
compound: CCc1ccc(/C=C(\C)C(=O)c2c(C)cc(C)[nH]c2=O)cc1
className: inactive

----------
- testSummary: qHTS Assay for Lipid Storage Modulators in Drosophila S3 Cells;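 on cell number change: cells counted by Cell Tracker Red CMTPX staining in the red channel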
- testSettings: BODIPY lipid droplet fluorescence, 18-24 h, cells fed with added oleic acid; measured here: cell count max response
The whole screen tested about 320,000 compounds, of which about 2,100 (0.66%) were called active. About 53% were inconclusive and are not listed. What follows is part of a selection rich in actives, with near analogues and random picks from the rest.

molecule: O=C(CN1CCN(Cc2ccccc2Cl)CC1)N/N=C/C=C\c1ccccc1[N+](=O)[O-]
cell number change, %: 0.435
//
molecule: CCOc1cc(/C=C/c2cccc[n+]2C)ccc1OCC(=O)Nc1ccc(C)cc1
cell number change, %: 2.56
//
molecule: COc1ccccc1C(CC(=O)Nc1ccc(C)c(C)c1)c1ccc(OC(C)C)cc1 (stereo not given)
cell number change, %: 11.9
//
molecule: COc1ccccc1NC(=O)CCc1c(C)[nH]c(=O)c(C#N)c1C
cell number change, %: 16.5
//
molecule: CC1(C)Cc2c(c(=S)nc(-c3ccccc3)n2CCOCCO)CO1
cell number change, %: 4.5
//
molecule: Cc1ccc(C2C(C(=O)c3cc4ccccc4o3)=C(O)C(=O)N2CCN2CCOCC2)cc1 (stereo not given)
cell number change, %: -0.236
//
molecule: O=C(C1=C(O)C(=O)N(CCN2CCOCC2)C1c1ccc([N+](=O)[O-])cc1)c1cccs1 (stereo not given)
cell number change, %: 22.6
//
molecule: COc1cc(NC(=O)CCc2c(C)[nH]c(=O)c(C#N)c2C)cc(OC)c1
cell number change, %: -2.94
//
molecule: Cc1ccc(NC(=O)CCc2c(C)[nH]c(=O)c(C#N)c2C)cc1
cell number change, %: 16.2
//
molecule: CC(=O)C1=C(O)C(=O)N(CCN2CCOCC2)C1c1ccccc1 (stereo not given)
cell number change, %: 1.7

----------
- testSummary: qHTS Assay for Lipid Storage Modulators in Drosophila S3 Cells
- testSettings: BODIPY lipid droplet fluorescence, 18-24 h, cells fed with added oleic acid; series mostly up to 46.1 µM
Screen size: about 320,000 compounds; about 2,100 (0.66%) were called active. About 53% were inconclusive and are not listed. Shown is part of a subset that was picked to be rich in actives.
reportedEndpoint: outcome

molecule: Cn1c(C(=O)NCCC2=CCCCC2)cc2c(=O)n3ccccc3nc21
value: inactive

molecule: O=C(N/N=C/c1ccccn1)c1cc(-c2ccncc2)nc2ccccc12
value: inactive

molecule: CCN1CCc2nc(NC(=O)c3ccc4c(c3)OCCO4)sc2C1
value: inactive

molecule: CC(=O)N(C)C1=C(N2CCOCC2)C(=O)c2ccccc2C1=O
value: inactive

molecule: COCc1ccc(C(=O)N(C)C2CCCN(Cc3ccccc3F)C2)o1 (stereo unspecified)
value: inactive

molecule: O=C(O)c1ccc(NC2=C(N3CCOCC3)C(=O)c3ccccc3C2=O)cc1
value: inactive
